Assayed System: UniProtKB P35372
Measurement Description: PathHunter β-arrestin recruitment assay, PAM mode with EC20 endomorphin-1
Assay type: cell-based
Applied Conditions: β-arrestin recruitment; read-out: β-arr. EC50
Metric Name: EC50

Study these solved cases before continuing.
>  <Compound>
O=S(=O)(c1ccc(Cl)cc1)N1CCCCC1c1ccc(F)c(F)c1 (racemic)

>  <Measured Value>
700 to 2100 nM

$$$$
>  <Compound>
Fc1cc(Cl)cc(CN2CCCCC2c2ccc(F)c(Cl)c2)c1 (stereo not shown)

>  <Measured Value>
700 to 2100 nM

$$$$
>  <Compound>
O=S(=O)(c1ccc(Cl)cc1)N1CCCCC1c1cc(C(F)(F)F)ccn1 (racemic)

>  <Measured Value>
> 2100 nM

$$$$
>  <Compound>
Fc1ccc(C2CCCCN2Cc2cc(Cl)ccc2Cl)cc1Cl (stereo not shown)

>  <Measured Value>
700 to 2100 nM

$$$$
>  <Compound>
O=S(=O)(c1ccc(Cl)cc1)N1CCCCC1c1ccnc(C(F)(F)F)c1 (racemic)

>  <Measured Value>
> 2100 nM

$$$$
>  <Compound>
Fc1ccc(Cl)nc1N1CCCCC1c1cncnc1 (stereo not shown)

>  <Measured Value>
< 700 nM

$$$$
>  <Compound>
Fc1cnc(Cl)nc1N1CCCCC1c1ccncn1 (stereo not shown)

>  <Measured Value>
< 700 nM

$$$$
>  <Compound>
Fc1ccc(C2CCCCN2Cc2cc(Cl)cc(Cl)c2)cc1Cl (stereo not shown)

>  <Measured Value>
> 2100 nM

$$$$

Exercise: Dear colleague, I am looking for the recorded EC50 of the following compound: FC(F)(F)c1cccc(C2CCCCN2c2cc(Cl)ncn2)c1 (stereo not shown)
Key: < 700 nM

Exercise: Dear colleague, I am looking for the recorded EC50 of the following compound: COC(=O)c1cc(C2CCCCN2S(=O)(=O)c2ccc(Cl)cc2)ccn1 (racemic)
Key: > 2100 nM

###

Assayed System: mu opioid receptor (MOR) (Homo sapiens, UniProt P35372)
Sequence (P35372 whole entry): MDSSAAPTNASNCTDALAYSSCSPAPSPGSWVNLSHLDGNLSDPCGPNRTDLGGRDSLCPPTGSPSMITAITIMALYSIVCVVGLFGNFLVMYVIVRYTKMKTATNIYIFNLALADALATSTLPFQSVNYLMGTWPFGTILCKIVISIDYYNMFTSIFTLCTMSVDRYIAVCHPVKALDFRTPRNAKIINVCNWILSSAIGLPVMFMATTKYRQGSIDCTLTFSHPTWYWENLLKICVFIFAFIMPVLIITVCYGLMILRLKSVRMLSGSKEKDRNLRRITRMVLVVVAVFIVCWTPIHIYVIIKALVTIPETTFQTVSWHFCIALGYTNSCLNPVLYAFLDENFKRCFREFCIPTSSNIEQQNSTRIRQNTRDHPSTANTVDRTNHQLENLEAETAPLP
Measurement Description: Hit Hunter cAMP signaling assay (adenylyl cyclase inhibition), PAM mode with EC20 endomorphin-1
Assay type: cell-based
Applied Conditions: cAMP EC50, adenylyl cyclase inhibition
Entries and their EC50

Study these solved cases before continuing.
>  <Compound>
COc1ccc(C2CCCCN2c2nc(Cl)ncc2C)cc1Br (centres unmarked) [compound 234]

>  <Measured Value>
> 2100 nM

$$$$
>  <Compound>
Fc1ccc(Cl)cc1CN1CCCCC1c1cccc(C(F)(F)F)n1 (centres unmarked) [compound 2]

>  <Measured Value>
< 700 nM

$$$$
>  <Compound>
Fc1ccc(C2CCCCN2c2nc(Cl)ncc2F)cc1Cl (centres unmarked) [compound 121]

>  <Measured Value>
< 700 nM

$$$$
>  <Compound>
Oc1cnc2ccc(C3CCCCN3c3nc(Cl)ncc3F)cc2c1 (centres unmarked) [compound 393]

>  <Measured Value>
< 700 nM

$$$$
>  <Compound>
Fc1ccc(Cl)cc1C1CCCCN1c1ccnc(Cl)n1 (centres unmarked) [compound 406]

>  <Measured Value>
< 700 nM

$$$$
>  <Compound>
Fc1ccc(Cl)nc1C1CCCCN1c1nc(Cl)ncc1F (centres unmarked) [compound 388]

>  <Measured Value>
< 700 nM

$$$$
>  <Compound>
Fc1cnc(Cl)nc1N1CCCCC1c1cncnc1 (centres unmarked) [compound 378]

>  <Measured Value>
< 700 nM

$$$$
>  <Compound>
Fc1cnc(Cl)nc1N1CCCCC1c1cccnc1 (centres unmarked) [compound 373]

>  <Measured Value>
< 700 nM

$$$$
>  <Compound>
FC(F)(F)c1ccc(N2CCCCC2c2cccc(C(F)(F)F)n2)cc1 (centres unmarked) [compound 452]

>  <Measured Value>
> 2100 nM

$$$$
>  <Compound>
Cc1ccc(C2CCCCN2c2nc(Cl)ncc2F)cn1 (centres unmarked) [compound 411]

>  <Measured Value>
< 700 nM

$$$$

Exercise: Dear colleague, I am looking for the recorded EC50 of the following compound: [N-]=[N+]=Nc1cccc(C2CCCCN2Cc2cc(Cl)ccc2F)n1 (centres unmarked) [compound 144]
Key: > 2100 nM

Exercise: Dear colleague, I am looking for the recorded EC50 of the following compound: Fc1c(C2CCCCN2c2ccnc(Cl)n2)cccc1C(F)(F)F (centres unmarked) [compound 365]
Key: < 700 nM

Exercise: Dear colleague, I am looking for the recorded EC50 of the following compound: OC1CCN(c2nc(Cl)ncc2F)C(c2ccc(F)c(Br)c2)C1 (centres unmarked) [compound 241]
Key: > 2100 nM

Exercise: Dear colleague, I am looking for the recorded EC50 of the following compound: COc1ccc(C2CCCCN2c2nc(Cl)ncc2F)cc1Br (centres unmarked) [compound 132]
Key: 700 to 2100 nM

Exercise: Dear colleague, I am looking for the recorded EC50 of the following compound: Fc1cnc(Cl)nc1N1CCCCC1c1cncc(Cl)n1 (centres unmarked) [compound 277]
Key: > 2100 nM

Exercise: Dear colleague, I am looking for the recorded EC50 of the following compound: COc1ncc(F)c(N2CCCCC2c2cccc(C(F)(F)F)c2)n1 (centres unmarked) [compound 271]
Key: 700 to 2100 nM

Exercise: Dear colleague, I am looking for the recorded EC50 of the following compound: Fc1cnc(Cl)nc1N1CCCCC1c1cccc(C(F)F)c1 (centres unmarked) [compound 298]
Key: < 700 nM

###

Assayed System: mu opioid receptor (MOR) (Homo sapiens, UniProt P35372)
Measurement Description: Hit Hunter cAMP signaling assay (adenylyl cyclase inhibition), PAM mode with EC20 endomorphin-1
Assay type: cell-based
Applied Conditions: adenylyl cyclase inhibition; read-out: cAMP EC50
Entries and their EC50

Study these solved cases before continuing.
>  <Compound>
O=S(=O)(c1ccc(Cl)cc1)N1CCCCC1c1ccc(Br)c(F)c1 (racemic)

>  <EC50>
> 2.1 µM

$$$$
>  <Compound>
Fc1cc(C2CCC(F)CN2c2nc(Cl)ncc2F)cc(C(F)(F)F)c1 (stereo not drawn) [compound 313]

>  <EC50>
0.7 to 2.1 µM

$$$$
>  <Compound>
COc1ccc(C2COCCN2c2nc(Cl)ncc2F)cc1Br (racemic)

>  <EC50>
> 2.1 µM

$$$$
>  <Compound>
Fc1cnc(Cl)nc1N1CC(F)CC1c1cccc(C(F)(F)F)n1 (stereo not drawn)

>  <EC50>
> 2.1 µM

$$$$
>  <Compound>
Fc1ccc(C2CCCCN2c2nc(Cl)ncc2F)cc1Cl (single isomer, unassigned) [compound 346]

>  <EC50>
< 0.7 µM

$$$$
>  <Compound>
CC1CCN(S(=O)(=O)c2ccc(Cl)cc2)C1c1ccc(F)c(F)c1F (mixture of isomers)

>  <EC50>
> 2.1 µM

$$$$
>  <Compound>
COc1ccc(C2CC(C)CN2S(=O)(=O)c2ccc(Cl)cc2)cc1Br (single isomer, unassigned)

>  <EC50>
> 2.1 µM

$$$$
>  <Compound>
O=S(=O)(c1ccc(Cl)cc1)N1CCCCC1c1ccc(C(F)(F)F)cn1 (racemic)

>  <EC50>
> 2.1 µM

$$$$

Exercise: Dear colleague, I am looking for the recorded EC50 of the following compound: Fc1ccc(Cl)cc1CN1CCOCC1c1cccc(C(F)(F)F)c1 (racemic)
Key: > 2.1 µM

Exercise: Dear colleague, I am looking for the recorded EC50 of the following compound: Fc1ccc(C2CCCCN2c2cccnc2N2CCOCC2)cc1Cl (stereo not drawn)
Key: > 2.1 µM

Exercise: Dear colleague, I am looking for the recorded EC50 of the following compound: Fc1cnc(Cl)nc1N1CC(F)(F)CC1c1cccc(C(F)(F)F)c1 (stereo not drawn)
Key: > 2.1 µM

Exercise: Dear colleague, I am looking for the recorded EC50 of the following compound: COc1ccc(C2COCCN2Cc2cc(Cl)ccc2F)cc1Br (racemic)
Key: > 2.1 µM

###

Entries and their EC50
Assayed System: mu opioid receptor (MOR) (Homo sapiens, UniProt P35372)
Measurement Description: PathHunter β-arrestin recruitment assay, PAM mode with EC20 endomorphin-1
Format: cell-based
Applied Conditions: β-arrestin recruitment; read-out: β-arr. EC50

>  <Compound>
Fc1cccc(C2CCCCN2c2nc(Cl)ncc2F)n1 (stereo not drawn)

>  <Metric Name>
EC50

>  <Measured Value>
> 2.1 µM

$$$$

Turning now to a further compound:
Exercise: Dear colleague, I am looking for the recorded EC50 of the following compound: Fc1ccc(C2CCCCN2c2nc(Cl)ncc2F)cc1Cl (single isomer, unassigned) [compound 10]
Key: < 0.7 µM

###

Assayed System: mu opioid receptor (MOR) (Homo sapiens, UniProt P35372)
Measurement Description: PathHunter β-arrestin recruitment assay, PAM mode with EC20 endomorphin-1
Format: cell-based
Applied Conditions: β-arrestin recruitment; read-out: β-arr. EC50
Entries and their EC50

Study these solved cases before continuing.
>  <Molecule>
C#Cc1cccc(N2CCCCC2c2cccc(C(F)(F)F)n2)c1 (centres unmarked)

>  <Metric Name>
EC50

>  <Measured Value>
> 2100 nM

$$$$
>  <Molecule>
Fc1cnc(Cl)nc1N1CCCCC1c1ccc2ncsc2c1 (centres unmarked)

>  <Metric Name>
EC50

>  <Measured Value>
< 700 nM

$$$$
>  <Molecule>
FC(F)(F)c1cccc(C2CCCCN2c2cccc(Cl)c2)n1 (centres unmarked)

>  <Metric Name>
EC50

>  <Measured Value>
> 2100 nM

$$$$

Turning now to a further molecule:
Exercise: Dear colleague, I am looking for the recorded EC50 of the following molecule: O=C1CCN(c2nc(Cl)ncc2F)C(c2cc(F)cc(C(F)(F)F)c2)C1 (centres unmarked)
Key: > 2100 nM
